// GI50 lookup, one value per entry
- Test system: M19-MEL
- assay_info: NCI tumour cell line growth inhibition, 48 h
The source made the active and inactive calls. Rule as the data show it: active = GI50 up to about 1.1 µM and inactive = higher.
assay_metric: GI50

1. C[C@H]1CC[P+](C)(c2ccccc2)C1 (stereo partly specified)	> 100 µM (inactive)
2. C=C1C(=O)C23C(O)CC4C5(C)CCCC4(C(O)OC5)C2C(OC(C)=O)CC1C3O (stereo unspecified)	13.8 µM (inactive)
3. C[Si](C)(C)/C(Br)=C\CCN1C(=O)CCC1O (stereo unspecified)	> 100 µM (inactive)
4. Cc1nc(=O)n2c(C)n[nH]c2c1C(=O)O	> 100 µM (inactive)
5. O=C1CCC(=O)C12CCc1ccccc12	> 100 µM (inactive)
6. Clc1cc(Cl)c2c(Cl)cc(Cl)c3c2c1N=S=N3	> 100 µM (inactive)

----------
- Test system: MDA-N
- assay_info: NCI tumour cell line growth inhibition, 48 h
Activity calls are given as the source filed them. Rule as the data show it: active = GI50 up to about 1.1 µM and inactive = higher.
Classes used: YES (active), NO (inactive)

1) Cc1ccc2c(c1)C(=O)C1(C2)Cc2cccc(C)c2C1=O (centres undefined)	NO
2) COC(=O)C1C(=O)N(C)C(=O)N2CCCC12 (centres undefined)	NO
3) O=C1C(c2ccc([N+](=O)[O-])cc2)=C(Cl)C(=O)c2c(O)cccc21	NO
4) Cc1cc(=O)[nH]c2c1C(=O)c1c(C)cc(=O)n(C)c1C2=O	YES
5) CC(=O)c1c(-c2cccc3ccccc23)c(C#N)c(=S)n(C2OC(CO)C(O)C(O)C2O)c1C (centres undefined)	NO
6) CC(=O)c1cnc2oc3ccc(O)cc3c2c1-c1ccccc1	NO
7) O=C(Nc1ccc(Cl)cc1)c1cc(S(=O)(=O)Nc2nc3cccnc3[nH]2)c(SSc2cc(Cl)c(C(=O)Nc3ccc(Cl)cc3)cc2S(=O)(=O)Nc2nc3cccnc3[nH]2)cc1Cl	NO
8) CC(=O)O[C@H]1CC[C@@]2(C)C(=CC[C@H]3[C@@H]4C/C(=C\c5ccncc5)[C@H](OC(C)=O)[C@@]4(C)CC[C@@H]32)C1	NO
9) CS(=O)(=O)N1CC(CCl)c2ccc(O)cc21 (centres undefined)	NO

----------
// GI50 lookup, one value per entry
- System: Malme-3M
- assay_info: NCI tumour cell line growth inhibition, 48 h
The source made the active and inactive calls. Rule as the data show it: active = GI50 up to about 1.1 µM and inactive = higher.
assay_metric: GI50

1. Cc1ccc(Nc2cccc3c2C(=O)c2cccc(Nc4ccc(C)cc4S(=O)(=O)O)c2C3=O)c(S(=O)(=O)O)c1	> 100 µM (inactive)
2. CC1=CC(=O)/C(=C/NC(=S)c2ccncc2)C(=O)O1	83.2 µM (inactive)
3. CC(=O)C1(C)CC(C#N)(C#N)C(C#N)=C1N (stereo not given)	> 100 µM (inactive)
4. CC(=O)NC1=C(OS(=O)(=O)c2ccc(C)cc2)CN(C)C1=O	2.26 µM (inactive)
5. OC(CCN1CCN(CCOC(c2ccccc2)c2ccccc2)CC1)c1ccccc1 (stereo not given)	17.5 µM (inactive)
6. CCOC(=O)C1=C(N)N(c2ccccc2)/C(=C(/C#N)c2nc3ccccc3[nH]2)S1	> 100 µM (inactive)
7. C[Si](C)(C)/C(Br)=C\CCN1C(=O)CCC1O (stereo not given)	> 100 µM (inactive)
8. CN/N=C(/Cc1occc(=O)c1O)C(=O)Nc1ccc(C)c(C)c1	> 100 µM (inactive)
9. COc1ccc(N2C(=O)/C(=C\c3ccccc3)SC2c2cc(OC)c(OC)c(OC)c2)cc1 (stereo not given)	> 100 µM (inactive)
10. c1ccc(CSc2nc3ccccc3nc2-c2cccs2)cc1	> 100 µM (inactive)
